Assay: Selectivity index, ratio of IC50 for rat L6 cells to IC50 for Plasmodium falciparum K1
Format: toxicity, cell-based
Conditions: L6 cells versus Plasmodium falciparum K1, read-out: Ratio IC50
Mark satisfied for reported selectivity ratio of 700 or greater; mark not satisfied for anything smaller.

>  <Test smiles>
Cl.Cl.N=C(N)c1ccc(-c2ccc3cc(-c4ccc(C(=N)N)o4)[nH]c3c2)cc1

>  <Label class>
satisfied

$$$$
>  <Test smiles>
Cl.Cl.N=C(N)c1ccc(-c2ccc3cc(-c4ccc(C(=N)N)cc4)[nH]c3c2)cc1

>  <Label class>
not satisfied

$$$$
>  <Test smiles>
Cl.Cl.N=C(N)c1ccc(-c2ccc3cc(-c4cc(C(=N)N)ccn4)[nH]c3c2)cc1

>  <Label class>
not satisfied

$$$$
>  <Test smiles>
Cl.Cl.N=C(N)c1ccc(-c2ccc3cc(-c4cnccc4C(=N)N)[nH]c3c2)cc1

>  <Label class>
not satisfied

$$$$
>  <Test smiles>
Cl.Cl.N=C(N)c1ccc(-c2ccc3[nH]c(-c4ccc(C(=N)N)cc4)cc3c2)cc1

>  <Label class>
satisfied

$$$$
>  <Test smiles>
Cl.Cl.Cn1c(-c2ccc(C(=N)N)cc2)nc2cc(-c3ccc(C(=N)N)cc3)ccc21

>  <Label class>
satisfied

$$$$
>  <Test smiles>
Cl.Cl.N=C(N)c1ccc(-c2ccc3nc(-c4ccc(C(=N)N)cc4)n(O)c3c2)cc1

>  <Label class>
satisfied

$$$$
>  <Test smiles>
N=C(N)c1ccc(-c2ccc(-c3nc4ccc(C(=N)N)cc4[nH]3)cc2)cc1

>  <Label class>
satisfied

$$$$
>  <Test smiles>
Cl.Cl.N=C(N)c1ccc(-c2ccc3[nH]c(-c4ccc(C(=N)N)cc4)nc3c2)cc1

>  <Label class>
satisfied

$$$$
>  <Test smiles>
Cl.Cl.N=C(N)c1ccc(-c2ccc3cc(-c4ccc(C(=N)N)s4)[nH]c3c2)cc1

>  <Label class>
not satisfied

$$$$
>  <Test smiles>
Cl.Cl.N=C(N)c1ccc(-c2ccc3[nH]c(-c4ccc(C(=N)N)s4)cc3c2)cc1

>  <Label class>
satisfied

$$$$

====

This document collects ΔTm values reported for Poly(dA-dT)oligonucleotide.

>  <Test smiles>
Cl.Cl.N=C(N)c1ccc(-c2ccc3nc(-c4ccc(C(=N)N)cc4)n(O)c3c2)cc1

>  <ΔTm>
12.2 °C

$$$$
>  <Test smiles>
Cl.Cl.N=C(N)c1ccc(-c2ccc3cc(-c4cnccc4C(=N)N)[nH]c3c2)cc1

>  <ΔTm>
> 27 °C

$$$$
>  <Test smiles>
Cl.Cl.N=C(N)c1ccc(-c2ccc3cc(-c4cc(C(=N)N)ccn4)[nH]c3c2)cc1

>  <ΔTm>
> 27 °C

$$$$
>  <Test smiles>
Cl.Cl.N=C(N)c1ccc(-c2ccc3cc(-c4ccc(C(=N)N)cc4)[nH]c3c2)cc1

>  <ΔTm>
> 27 °C

$$$$
>  <Test smiles>
N=C(N)c1ccc(-c2cc3ccc(C(=N)N)cc3[nH]2)cc1

>  <ΔTm>
> 27 °C

$$$$
>  <Test smiles>
Cl.Cl.N=C(N)c1ccc(-c2ccc3cc(-c4ccc(C(=N)N)o4)[nH]c3c2)cc1

>  <ΔTm>
24.9 °C

$$$$
>  <Test smiles>
Cl.Cl.N=C(N)c1ccc(-c2ccc3cc(-c4ccc(C(=N)N)s4)[nH]c3c2)cc1

>  <ΔTm>
> 27 °C

$$$$
>  <Test smiles>
Cl.Cl.Cn1c(-c2ccc(C(=N)N)cc2)nc2cc(-c3ccc(C(=N)N)cc3)ccc21

>  <ΔTm>
11.2 °C

$$$$
